Field: percent of parent. Provide a value for each of the variants that follow.
B1: unnamed (parent)
chain 1: DHQIRELTAKMETQSMYVSELKRTIRTLEDKVAEIEAQQCNGIYIWKIGNFGMHLKCQEEEKPVVIHSPGFYTGKPGYKLCMRLHLQLPTAQRCANYISLFVHTMQGEYDSHLPWPFQGTIRLTILDQSEAPVRQNHEEIMDAKPELLAFQRPTIPRNPKGFGYVTFMHLEALRQRTFIKDDTLLVRCEVSTRFDMGSLRREGFQPRSTDAGV
chain 2: LIWMYYHGQRHSDEHHHDDSLPHPQQATDDSGHESDSNSNEGRHHLLVSGAGDGPPLCSQNLGAPGGGPDNGPQDPDNTDDNGPQDPDNTDDNGPHDPLPQDPDNTDDNGPQDPDNTDDNGPHDPLPHSPSDSAGNDGGPPQLTEEVENKGGDQGPPLMTDGGGGHSHDSGHGGGDPHLPTLLLGSSGSGGDDDDPHGPVQLSYYD

variants of: B1; test: AlphaScreen; conditions: with partner chain of the complex shown; 1000 nM His-TRAF6; parent: 100; read off a plot
Numbers only, in %.

Here's what some known entries look like.
chain 2 Y205A = 84
chain 2 G198A = 96

Give percent of parent for each of the items listed below.
1. chain 2 V200A
2. chain 2 P24A Q26A T28A

[14, 92]

Give percent of parent for each of the items listed below.
1. chain 2 S203A
2. chain 2 Q201A
3. chain 2 L202A
4. chain 2 Y204A
5. chain 2 P199A

[90, 4, 98, 9, 21]
